Molecular target: human FGFR-1 (Homo sapiens)
Sequence (P11362 22-822 limits assumed): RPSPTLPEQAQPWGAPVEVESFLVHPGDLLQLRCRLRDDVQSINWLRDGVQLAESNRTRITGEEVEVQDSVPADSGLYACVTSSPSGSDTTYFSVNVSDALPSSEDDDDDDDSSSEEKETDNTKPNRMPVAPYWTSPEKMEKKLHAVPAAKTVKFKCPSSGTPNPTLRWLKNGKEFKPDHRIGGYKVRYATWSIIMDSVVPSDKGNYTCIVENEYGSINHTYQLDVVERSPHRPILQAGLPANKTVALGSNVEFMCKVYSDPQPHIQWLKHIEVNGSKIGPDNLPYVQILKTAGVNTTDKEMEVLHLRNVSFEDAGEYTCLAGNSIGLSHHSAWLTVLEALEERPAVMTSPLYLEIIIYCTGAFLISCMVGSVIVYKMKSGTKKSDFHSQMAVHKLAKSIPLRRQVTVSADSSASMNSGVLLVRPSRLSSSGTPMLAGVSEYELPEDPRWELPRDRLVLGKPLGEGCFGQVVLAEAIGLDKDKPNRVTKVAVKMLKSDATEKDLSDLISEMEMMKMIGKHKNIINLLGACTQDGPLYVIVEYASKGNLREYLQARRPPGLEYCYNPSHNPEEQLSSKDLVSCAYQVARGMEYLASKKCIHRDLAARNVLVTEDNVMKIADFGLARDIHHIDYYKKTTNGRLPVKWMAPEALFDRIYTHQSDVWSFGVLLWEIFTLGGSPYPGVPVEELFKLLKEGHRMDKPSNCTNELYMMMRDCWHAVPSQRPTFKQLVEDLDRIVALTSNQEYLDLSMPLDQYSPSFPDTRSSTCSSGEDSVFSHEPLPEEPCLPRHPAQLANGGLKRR
Assay: FGFR-1 high ATP kinase assay (TR-FRET)
Hi there, I'd appreciate the recorded IC50 for every entry that follows.
# value in nM; strip the unit string

[in] Find the measured IC50 of COc1cc(C)cc2cc(-c3cc(COC[C@H](C)N)n4ncnc(N)c34)sc12 and report it.
[out] 82.2

[in] Find the measured IC50 of COc1cc(C)cc2cc(-c3cc(CN4CCN(C)CC4)n4ncnc(N)c34)sc12 and report it.
[out] 39.1

[in] Find the measured IC50 of CNCCNCc1cc(-c2cc3cc(C)cc(OC)c3s2)c2c(N)ncnn12 and report it.
[out] 50.4

[in] Find the measured IC50 of COc1cc(C)cc2cc(-c3cc(CNC(C)(C)CN4CCCC4)n4ncnc(N)c34)sc12 and report it.
[out] 32.5

###

Molecular target: human mTOR (Homo sapiens (Human), UniProt P42345)
Sequence (P42345 1360-2549): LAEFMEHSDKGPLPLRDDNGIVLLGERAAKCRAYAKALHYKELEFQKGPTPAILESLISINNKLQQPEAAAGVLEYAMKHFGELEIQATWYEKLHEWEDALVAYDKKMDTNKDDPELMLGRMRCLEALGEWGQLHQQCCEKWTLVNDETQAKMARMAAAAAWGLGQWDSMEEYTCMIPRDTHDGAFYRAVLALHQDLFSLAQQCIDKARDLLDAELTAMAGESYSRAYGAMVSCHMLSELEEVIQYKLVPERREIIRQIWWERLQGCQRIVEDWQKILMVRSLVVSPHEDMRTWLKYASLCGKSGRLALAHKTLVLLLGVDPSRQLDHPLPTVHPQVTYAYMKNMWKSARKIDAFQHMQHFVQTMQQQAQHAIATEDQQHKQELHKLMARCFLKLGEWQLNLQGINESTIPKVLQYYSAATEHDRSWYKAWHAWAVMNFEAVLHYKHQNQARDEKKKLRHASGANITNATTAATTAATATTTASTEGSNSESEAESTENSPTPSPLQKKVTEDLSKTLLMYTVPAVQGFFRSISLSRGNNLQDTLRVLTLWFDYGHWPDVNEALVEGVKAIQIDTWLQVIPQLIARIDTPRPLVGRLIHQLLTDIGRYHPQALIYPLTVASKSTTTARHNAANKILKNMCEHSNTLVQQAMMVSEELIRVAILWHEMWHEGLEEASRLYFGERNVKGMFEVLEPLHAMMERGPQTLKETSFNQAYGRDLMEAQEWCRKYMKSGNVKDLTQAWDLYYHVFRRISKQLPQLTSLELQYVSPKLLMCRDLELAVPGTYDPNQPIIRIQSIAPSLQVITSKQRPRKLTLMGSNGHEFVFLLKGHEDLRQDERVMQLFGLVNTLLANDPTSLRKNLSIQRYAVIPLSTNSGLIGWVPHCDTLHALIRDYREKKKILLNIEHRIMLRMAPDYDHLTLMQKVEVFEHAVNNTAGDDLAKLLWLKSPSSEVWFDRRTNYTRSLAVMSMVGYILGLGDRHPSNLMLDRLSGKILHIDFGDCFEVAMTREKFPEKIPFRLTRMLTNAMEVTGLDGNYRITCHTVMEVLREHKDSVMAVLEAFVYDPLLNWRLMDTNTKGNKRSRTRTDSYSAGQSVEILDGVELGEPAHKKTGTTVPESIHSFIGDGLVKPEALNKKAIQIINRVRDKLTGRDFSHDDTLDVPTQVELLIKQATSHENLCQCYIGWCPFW
Assay: mTOR kinase assay (TR-FRET, for comparative purposes)
Assay type: biochemical
Conditions: 1 μM test compound, 40 μM ATP, mean values
result_type: mTOR % inhibition @ 1 μM

> print(dat)
                                   compound      observed.measurement
1  COc1cc(C)cc2cc(-c3cc(COC[C@@H]4CCCN4)n4ncnc(N)c34)sc12 [Example 109]  no inhib. effect detect.
2  COc1cc(C)cc2cc(-c3cc(CNCCO)n4ncnc(N)c34)sc12 [Example 72]  no inhib. effect detect.
3  COc1cc(C)cc2cc(-c3cc(CN4CCNCC4)n4ncnc(N)c34)sc12 [Example 2]                     22.8%
4  COc1cc(C)cc2cc(-c3cc(CN4CCC(N)CC4)n4ncnc(N)c34)sc12 [Example 26]  no inhib. effect detect.

###

Target: human mTOR (Homo sapiens (Human), UniProt P42345)
Experiment: mTOR kinase assay (TR-FRET, for comparative purposes)
Type: biochemical
Details: read-out: mTOR % inhibition @ 1 μM, 1 μM test compound, 40 μM ATP, mean values
Procedure: mTOR inhibitory activity of the compounds of the present invention was quantified employing the TR-FRET based mTOR assay as described in the following paragraphs: Test compounds were dissolved in DMSO to generate 10 mM stock solutions. […] For this, the fluorescence emissions at 495 nm and 520 nm after excitation at 340 nm was measured in an Envision 2104 multilabel reader (Perkin-Elmer).
Structures can show the parent of a compound that is named as a salt.
Hi there, I'd appreciate the recorded inhibition at 1 µM for every entry that follows.
# value in %; strip the unit string

[in] Find the measured inhibition at 1 µM of CCN(CC)C1CCN(Cc2cc(-c3cc4cc(C)cc(OC)c4s3)c3c(N)ncnn23)C1 (stereo not shown) and report it.
[out] 25.9

[in] Find the measured inhibition at 1 µM of COc1cc(C)cc2cc(-c3cc(C(=O)N4CCC[C@](C)(N)C4)n4ncnc(N)c34)sc12 and report it.
[out] 17.1

[in] Find the measured inhibition at 1 µM of CNCCNCc1cc(-c2cc3cc(C)cc(OC)c3s2)c2c(N)ncnn12 and report it.
[out] 2.4

[in] Find the measured inhibition at 1 µM of COc1cc(C)cc2cc(-c3cc(CN4CC[C@H](N(C)C)C4)n4ncnc(N)c34)sc12 and report it.
[out] 25.2

[in] Find the measured inhibition at 1 µM of COc1cc(C)cc2cc(-c3cc(CN(C)C4CCS(=O)(=O)C4)n4ncnc(N)c34)sc12 (stereo not shown) and report it.
[out] 46.9

[in] Find the measured inhibition at 1 µM of COc1cc(C)cc2cc(-c3cc(CN4CCN(C(=O)CO)CC4)n4ncnc(N)c34)sc12 and report it.
[out] 37.9

[in] Find the measured inhibition at 1 µM of COc1cc(C)cc2cc(-c3cc(CN4CC[C@@H](N)C4)n4ncnc(N)c34)sc12 and report it.
[out] 12.6

[in] Find the measured inhibition at 1 µM of COc1cc(C)cc2cc(-c3cc(CN4CCNC(C)(C)C4)n4ncnc(N)c34)sc12 and report it.
[out] 25.9

[in] Find the measured inhibition at 1 µM of CCC(N)COCc1cc(-c2cc3cc(C)cc(OC)c3s2)c2c(N)ncnn12 (stereo not shown) and report it.
[out] 8.8

[in] Find the measured inhibition at 1 µM of COc1cc(C)cc2cc(-c3cc(CN4CC(N5CCCC5)C4)n4ncnc(N)c34)sc12 and report it.
[out] 21.5

[in] Find the measured inhibition at 1 µM of COc1cc(C)cc2cc(-c3cc(C(=O)N4CCC(N(C)C)C4)n4ncnc(N)c34)sc12 (stereo not shown) and report it.
[out] 15.9

[in] Find the measured inhibition at 1 µM of COc1cc(C)cc2cc(-c3cc(CN4CCN(CC(N)=O)CC4)n4ncnc(N)c34)sc12 and report it.
[out] 28.2

[in] Find the measured inhibition at 1 µM of COc1cc(C)cc2cc(-c3cc(CN4CCOCC4)n4ncnc(N)c34)sc12 and report it.
[out] 28.1

[in] Find the measured inhibition at 1 µM of COc1cc(C)cc2cc(-c3cc(CN4CCCC4c4ccc(C)cc4)n4ncnc(N)c34)sc12 (stereo not shown) and report it.
[out] 16.7

[in] Find the measured inhibition at 1 µM of COc1cc(C)cc2cc(-c3cc(CO[C@@H]4CCNC4)n4ncnc(N)c34)sc12 and report it.
[out] 18.4

[in] Find the measured inhibition at 1 µM of COc1cc(C)cc2cc(-c3cc(COCCN4CCCC4)n4ncnc(N)c34)sc12 [Example 107, hydrochloride] and report it.
[out] 15

###

Target: human mTOR (Homo sapiens (Human), UniProt P42345)
Test: mTOR kinase assay (TR-FRET, for comparative purposes)
Type: biochemical
Conditions: read-out: mTOR % inhibition @ 1 μM, 1 μM test compound, 40 μM ATP, mean values
Structures can show the parent of a compound that is named as a salt.
Mark TRUE for reported inhibition at 1 µM of 20% or greater; mark FALSE for anything smaller.

[in] Check if inhibition at 1 µM >= 20% (inclusive). Item: COc1cc(C)cc2cc(-c3cc(CN4CCC(N(C)C)C4)n4ncnc(N)c34)sc12 (centres unmarked) [Example 42]
[out] TRUE

[in] Check if inhibition at 1 µM >= 20% (inclusive). Item: COc1cc(C)cc2cc(-c3cc(CN4CCC(CO)CC4)n4ncnc(N)c34)sc12 [Example 73]
[out] FALSE

[in] Check if inhibition at 1 µM >= 20% (inclusive). Item: COc1cc(C)cc2cc(-c3cc(COC4CCOC4)n4ncnc(N)c34)sc12 (centres unmarked) [Example 113]
[out] TRUE

[in] Check if inhibition at 1 µM >= 20% (inclusive). Item: COc1cc(C)cc2cc(-c3cc(CN4CCNC(c5cccs5)C4)n4ncnc(N)c34)sc12 (centres unmarked) [Example 35]
[out] TRUE

[in] Check if inhibition at 1 µM >= 20% (inclusive). Item: COc1cc(C)cc2cc(-c3cc(COCC(C)N)n4ncnc(N)c34)sc12 (centres unmarked) [Example 119]
[out] TRUE

[in] Check if inhibition at 1 µM >= 20% (inclusive). Item: COc1cc(C)cc2cc(-c3cc(CN4CCNC(=O)C4(C)C)n4ncnc(N)c34)sc12 [Example 11]
[out] TRUE

[in] Check if inhibition at 1 µM >= 20% (inclusive). Item: COc1cc(C)cc2cc(-c3cc(CN4CCCC(N(C)C)C4)n4ncnc(N)c34)sc12 (centres unmarked) [Example 86]
[out] TRUE

[in] Check if inhibition at 1 µM >= 20% (inclusive). Item: COc1cc(C)cc2cc(-c3cc(CN4CCNC(=O)CC4)n4ncnc(N)c34)sc12 [Example 20]
[out] TRUE

[in] Check if inhibition at 1 µM >= 20% (inclusive). Item: COc1cc(C)cc2cc(-c3cc(CN4CCNC(C(C)(C)C)C4)n4ncnc(N)c34)sc12 (centres unmarked) [Example 49]
[out] FALSE

[in] Check if inhibition at 1 µM >= 20% (inclusive). Item: COc1cc(C)cc2cc(-c3cc(CN4CC5CC5(N)C4)n4ncnc(N)c34)sc12 (centres unmarked) [Example 27]
[out] FALSE

[in] Check if inhibition at 1 µM >= 20% (inclusive). Item: COc1cc(C)cc2cc(-c3cc(CN4CCN5CCCC5C4)n4ncnc(N)c34)sc12 (centres unmarked) [Example 50]
[out] FALSE

[in] Check if inhibition at 1 µM >= 20% (inclusive). Item: COc1cc(C)cc2cc(-c3cc(CN4CC(C)NCC4C)n4ncnc(N)c34)sc12 (centres unmarked) [Example 44]
[out] FALSE

[in] Check if inhibition at 1 µM >= 20% (inclusive). Item: COc1cc(C)cc2cc(-c3cc(CNC4CCCC4O)n4ncnc(N)c34)sc12 (centres unmarked) [Example 83]
[out] FALSE

[in] Check if inhibition at 1 µM >= 20% (inclusive). Item: COc1cc(C)cc2cc(-c3cc(COCCN(C)C)n4ncnc(N)c34)sc12 [Example 108, dihydrochloride]
[out] FALSE

[in] Check if inhibition at 1 µM >= 20% (inclusive). Item: COc1cc(C)cc2cc(-c3cc(C(=O)NC4CCNC4=O)n4ncnc(N)c34)sc12 (racemic) [Example 98, hydrochloride]
[out] TRUE

[in] Check if inhibition at 1 µM >= 20% (inclusive). Item: COc1cc(C)cc2cc(-c3cc(CNC4CCCNC4=O)n4ncnc(N)c34)sc12 (centres unmarked) [Example 37]
[out] FALSE

[in] Check if inhibition at 1 µM >= 20% (inclusive). Item: COc1cc(C)cc2cc(-c3cc(CNC4CCCN(C)C4)n4ncnc(N)c34)sc12 (centres unmarked) [Example 43]
[out] FALSE

All values here come from patent US9475815B2.
